target system: HIV-1 protease (Human immunodeficiency virus type 1 group M subtype B)
Construct: made in house; host or cells: E. coli K12 L507/pHP10D (NRRL B-18560)
method: biochemical
study conditions: at 1000 ng/ml; read-out: Fluorescence Assay, given as ICxx (1000): xx is the percent inhibition
reported metric: inhibition at 1 µg/mL
Answer shape: numeric part, then the unit.

Prompt line: Tell me inhibition at 1 µg/mL of "CC[C@H](C)[C@H](NC(=O)N(C)Cc1ccccn1)C(=O)N[C@@H](Cc1ccc2ccccc2c1)[C@@H]1O[C@@H]1[C@H](Cc1ccc2ccccc2c1)NC(=O)[C@@H](NC(=O)N(C)Cc1ccccn1)[C@@H](C)CC" when tested on HIV-1 protease (Human immunodeficiency virus type 1 group M subtype B).
Response line: 25%

Prompt line: # assay system HIV-1 protease (Human immunodeficiency virus type 1 group M subtype B): give inhibition at 1 µg/mL of CCC(NC(=O)N(C)Cc1ccccn1)C(=O)NC(CSc1ccc2ccccc2c1)C1OC1C(CSc1ccc2ccccc2c1)NC(=O)C(CC)NC(=O)N(C)Cc1ccccn1 (stereo not shown)
Response line: 23%

Prompt line: Report the value of inhibition at 1 µg/mL obtained on HIV-1 protease (Human immunodeficiency virus type 1 group M subtype B) for "CCCC[C@H](NC(=O)OCc1ccccn1)C(=O)N[C@@H](Cc1ccccc1)[C@@H]1O[C@@H]1[C@H](Cc1ccccc1)NC(=O)[C@H](CCCC)NC(=O)OCc1ccccn1" .
Response line: 40%

Prompt line: Recall the reported inhibition at 1 µg/mL of "CC(C)[C@H](NC(=O)OCc1ccccn1)C(=O)N[C@@H](CCc1ccccc1)[C@@H]1O[C@@H]1[C@H](CCc1ccccc1)NC(=O)[C@@H](NC(=O)OCc1ccccn1)C(C)C" when tested on HIV-1 protease (Human immunodeficiency virus type 1 group M subtype B).
Response line: 26%

Prompt line: Tell me inhibition at 1 µg/mL of "CC[C@H](NC(=O)N(C)Cc1ccccn1)C(=O)N[C@@H](Cc1ccc2ccccc2c1)[C@@H]1O[C@@H]1[C@H](Cc1ccc2ccccc2c1)NC(=O)[C@H](CC)NC(=O)N(C)Cc1ccccn1" when tested on HIV-1 protease (Human immunodeficiency virus type 1 group M subtype B).
Response line: 34%

Prompt line: Quote inhibition at 1 µg/mL with test system HIV-1 protease (Human immunodeficiency virus type 1 group M subtype B) for "CC(C)[C@H](NC(=O)c1ccc2ccccc2n1)C(=O)N[C@@H](Cc1ccccc1)[C@@H]1O[C@@H]1[C@H](Cc1ccccc1)NC(=O)[C@@H](NC(=O)c1ccc2ccccc2n1)C(C)C"
Response line: 23%

Prompt line: Quote HIV-1 protease (Human immunodeficiency virus type 1 group M subtype B) inhibition at 1 µg/mL for entry "CC(C)[C@H](NC(=O)N(C)CCc1ccccn1)C(=O)N[C@@H](Cc1ccccc1)[C@@H]1O[C@@H]1[C@H](Cc1ccccc1)NC(=O)[C@@H](NC(=O)N(C)CCc1ccccn1)C(C)C" .
Response line: 32%
